Each entry below carries its measured AC50, system: Glucagon receptor (Homo sapiens, UniProt P47871). Also: assay procedure not described here.
Sequence (P47871 whole entry): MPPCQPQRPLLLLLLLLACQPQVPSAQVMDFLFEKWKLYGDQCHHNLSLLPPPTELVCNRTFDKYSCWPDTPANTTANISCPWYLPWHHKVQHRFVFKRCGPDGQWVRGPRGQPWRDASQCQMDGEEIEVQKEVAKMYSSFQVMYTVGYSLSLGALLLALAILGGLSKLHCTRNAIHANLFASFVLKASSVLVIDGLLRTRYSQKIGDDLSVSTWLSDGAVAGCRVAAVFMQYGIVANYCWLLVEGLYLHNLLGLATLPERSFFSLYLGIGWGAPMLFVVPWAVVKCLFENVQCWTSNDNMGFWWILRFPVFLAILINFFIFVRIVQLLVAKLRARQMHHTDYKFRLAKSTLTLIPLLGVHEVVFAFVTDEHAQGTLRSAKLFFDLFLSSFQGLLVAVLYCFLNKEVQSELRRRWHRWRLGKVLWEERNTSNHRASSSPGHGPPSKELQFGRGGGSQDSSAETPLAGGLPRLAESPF
readoutName: AC50

                                   compound   result
0  C[C@]12CCC(=O)C=C1CC[C@@H]1[C@@H]2[C@@H](O)C[C@@]2(C)[C@H]1CC[C@]2(O)C(=O)CO [HYDROCORTISONE]  > 30 µM
1  COc1ccc2c3c1O[C@H]1[C@@H](O)C=C[C@H]4[C@@H](C2)N(C)CC[C@@]341  > 30 µM
2  O=[N+]([O-])O[C@@H]1CO[C@H]2[C@@H]1OC[C@@H]2O [ISOSORBIDE MONONITRATE]  > 30 µM
